system: CDK7; conditions: concentration: 1 μM, replicates: in singlicate; n = 1;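 note: KINOMEscan kinase panel screen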
Quick reference for %Inh among some molecules
readoutName: %Inh (%)

[
  {
    "structure": "Cc1ccc(NC(=O)Nc2ccc(Cl)c(C(F)(F)F)c2)cc1-c1ccc(C(=O)Nc2ccncc2)cc1",
    "valueUnit": "%",
    "numericResult": 0
  },
  {
    "structure": "CC(C)c1cc(-c2ccc3c(N)n[nH]c3c2)nc(N)n1",
    "valueUnit": "%",
    "numericResult": 0
  },
  {
    "structure": "COc1ccc(Nc2nccc(-c3ccc(NC(=O)c4cc5cc(F)ccc5[nH]4)cc3)n2)cc1",
    "valueUnit": "%",
    "numericResult": 0
  },
  {
    "structure": "CNCc1ccc2nc(NC(=O)c3ccc(C(C)(C)C)cc3)cn2c1",
    "valueUnit": "%",
    "numericResult": 8
  }
]

* * *

Quick reference for %Inh among some compounds
tested on: PIK4CB; construct: gene PI4KB; settings: concentration: 1 μM, replicates: in singlicate; n = 1

[
  {
    "structure": "Cc1cnc(N)c(/C=C/c2cncc(C(=O)NCCc3ccc(Cl)cc3Cl)c2)c1.Cl",
    "valueUnit": "%",
    "%Inh": 0
  },
  {
    "structure": "CC(C)c1ccc(O)cc1Nc1ccnc2ccc(C(F)(F)F)cc12",
    "valueUnit": "%",
    "%Inh": 45
  },
  {
    "structure": "CC(=O)c1c(C)c2cnc(Nc3ccc(N4CCNCC4)cn3)nc2n(C2CCCC2)c1=O",
    "valueUnit": "%",
    "%Inh": 0
  },
  {
    "structure": "Cc1c(Cn2c(C)c(C)n3c(=O)cc(N4CCOCC4)nc23)cccc1C(F)(F)F",
    "valueUnit": "%",
    "%Inh": 0
  },
  {
    "structure": "Nc1nccc(-c2c(-c3ccc(F)cc3)ncn2C2CCN(Cc3ccccc3)CC2)n1",
    "valueUnit": "%",
    "%Inh": 25
  },
  {
    "structure": "COc1ccc(Nc2nccc(NCCNC(=O)Nc3cc(C)ccc3C)n2)cc1",
    "valueUnit": "%",
    "%Inh": 0
  },
  {
    "structure": "CC[C@@H]1CO[C@H](C(=O)Nc2ccccc2)CN1c1cc(-c2ccc3c(N)n[nH]c3c2)nc(NC)n1",
    "valueUnit": "%",
    "%Inh": 33
  },
  {
    "structure": "CN1c2ccc(-c3ccc(C(N)=O)cc3)cc2-c2[nH]ncc2S1(=O)=O",
    "valueUnit": "%",
    "%Inh": 0
  }
]

* * *

test system: LRRK2; settings: concentration: 1 μM, replicates: in singlicate; n = 1
readoutName: %Inh (%)

[
  {
    "compound": "NS(=O)(=O)c1cccc(N/C=C2\\C(=O)Nc3ccc(S(=O)(=O)Cc4c(Cl)cccc4Cl)cc32)c1 [GSK398099]",
    "numericResult": 0
  },
  {
    "compound": "CNc1nc(-c2ccc3c(N)n[nH]c3c2)cc(N2C[C@@H](C(=O)NC3CCCCC3)OC[C@H]2C)n1 [GSK2375584]",
    "numericResult": 0
  },
  {
    "compound": "CC(C)c1cc(-c2ccc3c(N)n[nH]c3c2)nc(N)n1 [GSK2250882]",
    "numericResult": 0
  },
  {
    "compound": "Cc1ccc(-c2nc(Nc3ccncc3)c3ccccc3n2)s1 [GSK189015]",
    "numericResult": 54
  },
  {
    "compound": "Cc1ccc(NC(=O)Nc2ccccc2)cc1-c1ccc(C(=O)Nc2ccncc2)cc1 [GSK1398471]",
    "numericResult": 0
  },
  {
    "compound": "Cc1ccc(NC(=O)Nc2ccc(Cl)c(C(F)(F)F)c2)cc1-c1ccc(C(=O)Nc2ccncc2)cc1 [GSK1398470]",
    "numericResult": 0
  },
  {
    "compound": "CC(C)c1ccc(O)cc1Nc1ccnc2ccc(C(F)(F)F)cc12 [GW482059]",
    "numericResult": 51
  },
  {
    "compound": "Cn1cnc2c(N)ncnc21 [SKF-97623]",
    "numericResult": 0
  },
  {
    "compound": "Nc1cccc(-c2ccc3c(N)n[nH]c3c2)n1 [GSK2192730]",
    "numericResult": 0
  },
  {
    "compound": "Cc1ccc(NC(=O)Nc2ccccc2F)cc1-c1ccc(C(=O)Nc2ccncc2)cc1 [GSK1398477]",
    "numericResult": 15
  },
  {
    "compound": "O=C(Nc1n[nH]c2nc(-c3ccco3)c(Br)cc12)C1CCN(Cc2ccccc2)C1.O=C(O)[C@H](O)[C@@H](O)C(=O)O (centres unmarked) [SB-742034]",
    "numericResult": 0
  },
  {
    "compound": "COc1ccc(Nc2nccc(N3CCC(NC(=O)C(C)c4ccc(Cl)cc4)C3)n2)cc1 (centres unmarked) [GSK1379735]",
    "numericResult": 51
  },
  {
    "compound": "Cc1ccccc1Cn1ccn2c(=O)cc(N3CCOCC3)nc12 [GSK2269905]",
    "numericResult": 0
  },
  {
    "compound": "Nc1ncnc2occ(-c3ccc4c(c3)CCN4C(=O)Cc3cc(F)ccc3F)c12 [GSK2645446]",
    "numericResult": 0
  },
  {
    "compound": "O=C(Nc1n[nH]c2nc(-c3cccs3)c(Br)cc12)C1CCCC1 [SB-743341]",
    "numericResult": 28
  },
  {
    "compound": "Cc1ccccc1-c1cc(-c2c[nH]nc2-c2ccccn2)ccn1 [GW680061]",
    "numericResult": 23
  },
  {
    "compound": "Cc1c(Cn2c3ccccc3n3c(=O)cc(N4CCOCC4)nc23)cccc1C(F)(F)F [GSK2306394]",
    "numericResult": 33
  },
  {
    "compound": "CCCCc1nn2ncccc2c1-c1ccnc(NC2CC2)n1 [GW684374]",
    "numericResult": 0
  },
  {
    "compound": "COc1cccc(NC(=O)Nc2ccc(C)c(-c3ccc(C(=O)Nc4ccncc4)cc3)c2)c1 [GSK1398474]",
    "numericResult": 0
  },
  {
    "compound": "O=C(Nc1n[nH]c2nc(-c3cccs3)c(Br)cc12)C1CC1 [SB-735297]",
    "numericResult": 0
  },
  {
    "compound": "COc1cc2ncnc(Nc3cccc(Br)c3)c2cc1OC.Cl [GI230329]",
    "numericResult": 0
  },
  {
    "compound": "CCn1c(-c2c(N)noc2C)nc2cnccc21 [SB-737856]",
    "numericResult": 0
  },
  {
    "compound": "O=C1NC(=O)C(c2ccc(Cl)cc2)=C1Nc1cccc(Cl)c1 [SB-317651]",
    "numericResult": 0
  },
  {
    "compound": "O=c1cc(N2CCOCC2)nc2n(Cc3cccc(Cl)c3Cl)c3ccccc3n12 [GSK2299009]",
    "numericResult": 0
  },
  {
    "compound": "CN1c2ccc(-c3ccc(C(N)=O)cc3)cc2-c2[nH]ncc2S1(=O)=O",
    "numericResult": 0
  },
  {
    "compound": "CS(=O)(=O)CCNCc1nc(-c2ccc3ncnc(Nc4ccc5c(cnn5Cc5ccccc5)c4)c3c2)cs1.Cl.Cl [GW569716]",
    "numericResult": 22
  },
  {
    "compound": "Nc1nccc(-c2c(-c3ccc(F)cc3)ncn2C2CCN(Cc3ccccc3)CC2)n1 [SB-219980]",
    "numericResult": 0
  },
  {
    "compound": "COC(=O)C(Cc1ccccc1)NC(=O)NC1CCN(c2ccnc(Nc3ccc(F)cc3)n2)C1 (centres unmarked) [GSK1379714]",
    "numericResult": 0
  },
  {
    "compound": "O=C(Nc1n[nH]c2cc(-c3ccsc3)ccc12)C1CC1 [SB-732932]",
    "numericResult": 0
  },
  {
    "compound": "COc1ccc(Nc2nccc(N3CCC(NC(=O)C(C)c4ccc(Cl)cc4)CC3)n2)cc1 (centres unmarked) [GSK1379812]",
    "numericResult": 0
  },
  {
    "compound": "CCn1c(-c2ccccc2)nc2cnccc21 [SB-733416]",
    "numericResult": 51
  },
  {
    "compound": "CC(=O)c1c(C)c2cnc(Nc3ccn(C)n3)nc2n(C2CCCC2)c1=O",
    "numericResult": 0
  }
]
